test system: Fusarium oxysporum; assay: Inhibition of phytopathogenic fungi, field test on affected potato plants; assay type: in vivo; conditions: 5 m^2 plots of affected potato plants sprayed
ASSAY_READOUT: Inhibition of growth of phytopathogenic fungi colonies, % Fusarium oxysporum test field (%)
Give your result in % as a bare value.

COMPOUND	OBSERVED
O=C(NP(=O)(Nc1ccc(Cl)cc1[N+](=O)[O-])Nc1ccc(Cl)cc1[N+](=O)[O-])c1ccc(Cl)cc1	48
COP(=O)(NC(=O)C(Cl)(Cl)CCl)Nc1ccccc1 (stereo not drawn)	60

State its Inhibition of growth of phytopathogenic fungi colonies, % Fusarium oxysporum test field for this compound: `O=C(NP(=O)(Nc1ccc(Cl)cc1[N+](=O)[O-])Nc1ccc(Cl)cc1[N+](=O)[O-])c1ccc(Br)cc1`
97

----------
system: Venturia inaequalis; assay: Inhibition of phytopathogenic fungi, field test on affected potato plants; format: in vivo; conditions: 5 m^2 plots of affected potato plants sprayed
ASSAY_READOUT: Inhibition of growth of phytopathogenic fungi colonies, % Venturia inaequalis test field (%)
The reply should be a number in %, with the unit left off.

MOLECULE	SYSTEM_UNDER_TEST	OBSERVED
O=C(NP(=O)(Nc1ccc(Cl)cc1[N+](=O)[O-])Nc1ccc(Cl)cc1[N+](=O)[O-])c1ccc(Cl)cc1 [Example 14]	Venturia inaequalis	49
O=C(NP(=O)(Nc1ccc(Br)cc1)Nc1ccc(Br)cc1)c1ccc(Br)cc1 [Example 15]	Venturia inaequalis	98
O=C(NP(=O)(Nc1ccc(Cl)cc1Cl)Nc1ccc(Cl)cc1Cl)c1ccc(Br)cc1 [Example 13]	Venturia inaequalis	44
O=C1C(Cl)=C(Cl)C(=O)c2ccccc21 [2,3-dichloro--1,4-naphtho-quinone, 2,3-dichloro-1,4-naphthoquinone, reference compound]	Venturia inaequalis	39

Could you now look at the following molecule, please?
Please look at this molecule and report its Inhibition of growth of phytopathogenic fungi colonies, % Venturia inaequalis test field: COP(=O)(NC(=O)C(Cl)(Cl)CCl)Nc1ccccc1 (centres unmarked) [Example 11]
52

----------
test system: Fusarium culmorum; assay: Inhibition of phytopathogenic fungi, field test on affected potato plants; format: in vivo; details: 5 m^2 plots of affected potato plants sprayed
ASSAY_READOUT: Inhibition of growth of phytopathogenic fungi colonies, % Fusarium culmorum Tests field (%)
Your answer should be a plain number; it is taken to be in %.

COMPOUND	OBSERVED
O=C(NP(=O)(Nc1ccc(Br)cc1)Nc1ccc(Br)cc1)c1ccc(Br)cc1	100

Tell me measured Inhibition of growth of phytopathogenic fungi colonies, % Fusarium culmorum Tests field for `O=C(NP(=O)(Nc1ccc(Cl)cc1[N+](=O)[O-])Nc1ccc(Cl)cc1[N+](=O)[O-])c1ccc(Br)cc1` please.
99

In one line, give reported Inhibition of growth of phytopathogenic fungi colonies, % Fusarium culmorum Tests field of the entry O=C(NP(=O)(NC(CO)C(O)c1ccc([N+](=O)[O-])cc1)NC(CO)C(O)c1ccc([N+](=O)[O-])cc1)c1ccc(Cl)cc1 (centres unmarked) .
61

Identify measured Inhibition of growth of phytopathogenic fungi colonies, % Fusarium culmorum Tests field associated with CN(C)C(=S)SSC(=S)N(C)C [tetramethylthi-uram disulphide, tetramethylthiuram disulphide, reference compound]
98

Fill in reported Inhibition of growth of phytopathogenic fungi colonies, % Fusarium culmorum Tests field for this entry: `O=C(NP(=O)(Nc1ccc(Cl)cc1Cl)Nc1ccc(Cl)cc1Cl)c1ccc(Br)cc1`
93
